Below: a set of entries, each annotated with reported % max blocking.
target: T1, human GFRα3 expressed with a C-terminal myc-myc-hexahistidine tag (human, UniProt O60609 32-374, biotinylated (sites not given) in ELISA format 2 and in the Octet cross-competition; not in SPR); test: blocking ELISA 2, biotin-hGFRα3-mmH to coated hARTEMIN-mmH + hRET-10His
T1 construct: also called hGFRα3-mmh; hGFRα3-mmH
T1 sequence (O60609 other isoform, or with tags, fused parts or gaps limits assumed): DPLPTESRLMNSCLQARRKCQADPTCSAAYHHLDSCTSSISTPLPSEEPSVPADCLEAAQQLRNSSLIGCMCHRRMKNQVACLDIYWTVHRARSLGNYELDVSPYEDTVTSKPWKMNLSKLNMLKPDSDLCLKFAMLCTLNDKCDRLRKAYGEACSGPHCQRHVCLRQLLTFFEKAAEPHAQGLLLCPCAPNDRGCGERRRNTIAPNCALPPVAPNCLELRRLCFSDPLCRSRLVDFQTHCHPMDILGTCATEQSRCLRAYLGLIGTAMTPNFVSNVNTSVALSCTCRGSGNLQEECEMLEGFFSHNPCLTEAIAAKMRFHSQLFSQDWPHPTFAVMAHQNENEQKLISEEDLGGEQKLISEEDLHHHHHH
Number only, in %; omit the unit.

INSERT INTO measurements (binder, number) VALUES
  ('H4H2350P (antibody, human IgG4, V domains shown, human IgG4 Fc (H4H)) VH: QVQLQESGPGLVKPSETLSLTCTVSGGSISTYYWSWFRQPPGKGLEWIGYIYYSGSTNHNPSLKSRVTISVDTSKNQFSLKLRSVTAADTAVYYCARVGPVGWGSWGNFDYWGQGTLVTVSS VL: DIQLTQSPSFLSASVGDRVTITCWASQGISSYLAWSQQKPGKAPKLLIYAASTLQSGVPSRFSGSGSGTEFTLTISSLQPEDFATYYCQQLNSYPWTFGQGTKVEIK', 91);

Query: Looking for the measured % max blocking of H4H2346S (antibody, human IgG4, V domains shown, human IgG4 Fc (H4H)) VH: QVQLVESGGGVVQPGRSLRLSCAASGFSFSDYVMHWVRQAPGKGLEWVASIWFDGSNEFYADSVKGRFTISRDNSKNTLFLQMNSLRAEDTAVYYCAKKGVLVATSAFDIWGQGTMVTVSS VL: EIVMTQSPSSLSASVGDRVTITCRASQSINNYLNWYHQKPGKAPKLLIYAASSLQSGVPSRFSGSGSGTDYTLTISSLQPEDFGNYYCQQSYRTSMYTFGQGTKVEIK , can you help?
Reply: 99
